Reported IC50 values for a set of compounds
# measurement target: UniProtKB Q9UDY8
# method: biochemical
readout: IC50 (nM)

| compound | readout number |
| --- | --- |
| CCN(C(=O)C1CCS(=O)(=O)CC1)[C@@H](c1ccc(NC2Cc3ccccc3C2(C)C)cn1)C(F)(F)F (single isomer, unassigned) [Example 189] | 91 |
| CN(C(=O)[C@H]1CCC(=O)NC1)[C@@H](c1ccc(N[C@H]2Cc3ccc(Cl)cc3C2)cn1)C(F)(F)F | 170 |
| CN(C(=O)C1C2CS(=O)(=O)CC21)[C@@H](c1ccc(NC2Cc3ccccc3C2(C)C)cn1)C(F)(F)F (single isomer, unassigned) [Example 215] | 88 |
| CN(C(=O)[C@@H]1CNC(=O)C1)[C@@H](c1ccc(N[C@H]2Cc3ccc(Cl)c(F)c3C2)cn1)C(F)(F)F (single isomer, unassigned) | 1100 |
| CN(C(=O)C1CCOCC1)[C@@H](c1ccc(NC2Cc3ccccc3C2(C)C)cc1)C(F)(F)F (single isomer, unassigned) [Example 19] | 30 |
| CN(C(=O)C1CN(C(=O)C2CCO2)C1)[C@@H](c1ccc(NC2Cc3ccc(Cl)c(F)c3C2)cn1)C(F)(F)F (single isomer, unassigned) [Example 386] | 2670 |
| CN(C(=O)C1CCS(=O)(=O)CC1)[C@@H](c1ccc(NC2Cc3c(F)ccc(Cl)c3C2)cn1)C(F)(F)F (single isomer, unassigned) [Example 293] | 55 |
| CN(C(=O)c1cocn1)[C@@H](c1ccc(NC2Cc3ccccc3C2(C)C)cc1)C(F)(F)F (single isomer, unassigned) [Example 26] | 700 |
| CN(C(=O)C1CCNCC1)[C@@H](c1ccc(NC2Cc3ccccc3C2(C)C)cn1)C(F)(F)F (single isomer, unassigned) [Example 146] | 110 |
| CN(C(=O)C1CCS(=O)(=O)CC1)[C@@H](c1ccc(NC2Cc3ccccc3C2(C)C)cn1)C(F)(F)F (single isomer, unassigned) [Example 78] | 18 |
| CN(C(=O)C1CCS(=O)(=O)CC1)[C@@H](c1ccc(NC2Cc3ccc(Cl)c(C4CC4)c3C2)cn1)C(F)(F)F (single isomer, unassigned) [Example 306] | 9 |
| CN(C(=O)C1CCS(=O)(=O)CC1)[C@@H](c1ccc(NC2Cc3ccccc3C2(C)C)cc1)C(F)(F)F (single isomer, unassigned) [Example 2] | 50 |
| CN(C(=O)[C@@H]1CNC(=O)C1)[C@@H](c1ccc(NC2Cc3ccc(Cl)c(Cl)c3C2)cn1)C(F)(F)F (single isomer, unassigned) [Example 319] | 24 |
| CN(C(=O)C1CCS(=O)(=O)CC1)[C@@H](c1ccc(NC2Cc3cccc(C(F)(F)F)c3C2)nc1)C(F)(F)F (single isomer, unassigned) [Example 280] | 860 |
| CN(C(=O)C1CCS(=O)(=O)CC1)[C@@H](c1ccc(NC2Cc3cccc(Br)c3C2)cn1)C(F)(F)F (some centres unmarked) | 110 |
| CN(C(=O)C1CCS(=O)(=O)CC1)[C@@H](c1ccc(NC2Cc3cc(F)c(F)c(F)c3C2)cn1)C(F)(F)F (single isomer, unassigned) [Example 296] | 1400 |
| CN(C(=O)C1CN(S(C)(=O)=O)C1)[C@@H](c1ccc(NC2Cc3ccccc3C2(C)C)cc1)C(F)(F)F (single isomer, unassigned) [Example 69] | 79 |
| CN(C(=O)C1CCS(=O)(=O)CC1)[C@@H](c1ccc(NC2Cc3c(F)ccc(Cl)c3C2)cn1)C(F)(F)F (single isomer, unassigned) [Example 294] | 2400 |
| CN1CCC(C(=O)N(C)[C@@H](c2ccc(NC3Cc4ccccc4C3(C)C)cn2)C(F)(F)F)CC1 (single isomer, unassigned) [Example 132] | 250 |
| CN1CC(C(=O)N(C)[C@@H](c2ccc(NC3Cc4ccccc4C3(C)C)cc2)C(F)(F)F)C1 (single isomer, unassigned) [Example 75] | 370 |
| Cc1ncc(C(=O)N(C)[C@@H](c2ccc(NC3Cc4ccc(Cl)c(F)c4C3)cn2)C(F)(F)F)cn1 (single isomer, unassigned) | 410 |
| COC1c2ccccc2CC1Nc1ccc([C@H](N(C)C(=O)C2CCS(=O)(=O)CC2)C(F)(F)F)cc1 (single isomer, unassigned) | 120 |
| CN(C(=O)C1CCS(=O)(=O)CC1)[C@@H](c1ccc(NC2Cc3ccc(Cl)c(Cl)c3C2)nc1)C(F)(F)F (single isomer, unassigned) [Example 345] | 7 |

###

Measured log10(IC50), listed per entry for reference.
# measurement target: FL hMALT1 enzyme (Homo sapiens, UniProt Q9UDY8)
# Sequence (Q9UDY8 whole entry): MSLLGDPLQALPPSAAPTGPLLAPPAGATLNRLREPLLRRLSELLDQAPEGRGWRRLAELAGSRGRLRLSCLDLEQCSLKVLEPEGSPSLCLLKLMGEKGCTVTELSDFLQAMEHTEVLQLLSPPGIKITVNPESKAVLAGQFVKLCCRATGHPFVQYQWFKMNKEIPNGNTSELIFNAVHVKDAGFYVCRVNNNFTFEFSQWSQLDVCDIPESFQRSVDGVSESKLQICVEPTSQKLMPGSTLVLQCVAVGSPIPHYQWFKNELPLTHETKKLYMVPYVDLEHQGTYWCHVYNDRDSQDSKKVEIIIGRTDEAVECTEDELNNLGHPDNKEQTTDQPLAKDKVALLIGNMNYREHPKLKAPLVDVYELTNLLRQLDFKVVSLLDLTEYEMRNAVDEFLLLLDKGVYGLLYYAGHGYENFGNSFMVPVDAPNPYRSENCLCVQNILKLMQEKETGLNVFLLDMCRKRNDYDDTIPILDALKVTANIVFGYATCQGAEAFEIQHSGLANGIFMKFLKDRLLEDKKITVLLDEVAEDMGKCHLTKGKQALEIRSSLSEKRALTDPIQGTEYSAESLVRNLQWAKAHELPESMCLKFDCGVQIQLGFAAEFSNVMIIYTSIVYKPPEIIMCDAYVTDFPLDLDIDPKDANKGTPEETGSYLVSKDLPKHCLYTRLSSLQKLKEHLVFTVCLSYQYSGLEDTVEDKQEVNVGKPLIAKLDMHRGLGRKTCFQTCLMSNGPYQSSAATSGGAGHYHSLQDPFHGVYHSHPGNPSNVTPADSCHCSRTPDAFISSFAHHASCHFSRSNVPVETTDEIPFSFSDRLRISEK
# method: biochemical
readout: log10(IC50) (log10 of the value in nM)

| molecule | measurement target | log10(IC50) |
| --- | --- | --- |
| CN(C(=O)C1CCS(=O)(=O)CC1)[C@@H](c1ccc(NC2Cc3ccccc3C2(C)C)cn1)C(F)(F)F (single isomer, unassigned) [Example 77] | FL hMALT1 enzyme (Homo sapiens, UniProt Q9UDY8) | 1.83 |
| CN(C(=O)C1CCS(=O)(=O)CC1)[C@@H](c1ccc(NC2Cc3ccc(C(F)(F)F)cc3C2)cn1)C(F)(F)F (single isomer, unassigned) [Example 256] | FL hMALT1 enzyme (Homo sapiens, UniProt Q9UDY8) | 3.04 |
| CN(C(=O)C1CCS(=O)(=O)CC1)[C@@H](c1ccc(NC2Cc3cccc(F)c3C2)cn1)C(F)(F)F (single isomer, unassigned) [Example 274] | FL hMALT1 enzyme (Homo sapiens, UniProt Q9UDY8) | 2.45 |
| CN(C(=O)N1CCOCC1)[C@@H](c1ccc(N[C@@H]2Cc3ccccc3C2(C)C)cc1)C(F)(F)F (single isomer, unassigned) | FL hMALT1 enzyme (Homo sapiens, UniProt Q9UDY8) | 2.60 |
| CN(C(=O)C1CCS(=O)(=O)CC1)[C@@H](c1ccc(NC2Cc3cccc(C(F)(F)F)c3C2)nc1)C(F)(F)F (single isomer, unassigned) [Example 281] | FL hMALT1 enzyme (Homo sapiens, UniProt Q9UDY8) | 1.15 |
| CN([C@@H](c1ccc(NC2Cc3ccccc3C2(C)C)cc1)C(F)(F)F)S(=O)(=O)C1CC1 (single isomer, unassigned) [Example 80] | FL hMALT1 enzyme (Homo sapiens, UniProt Q9UDY8) | 2.32 |
| CN(C(=O)[C@H]1CC[C@@H](NS(C)(=O)=O)C1)[C@@H](c1ccc(N[C@H]2Cc3ccccc3C2(C)C)cn1)C(F)(F)F | FL hMALT1 enzyme (Homo sapiens, UniProt Q9UDY8) | 1.32 |
| CN(C(=O)CN1CC(=O)NC1=O)[C@@H](c1ccc(NC2Cc3ccccc3C2(C)C)cn1)C(F)(F)F (single isomer, unassigned) [Example 213] | FL hMALT1 enzyme (Homo sapiens, UniProt Q9UDY8) | 2.70 |
| CN1CC(=O)NCC1C(=O)N(C)[C@@H](c1ccc(N[C@H]2Cc3ccccc3C2(C)C)cn1)C(F)(F)F (single isomer, unassigned) [Example 201] | FL hMALT1 enzyme (Homo sapiens, UniProt Q9UDY8) | 2.04 |
| CN(C(=O)[C@H]1C[C@@]2(CCN2C)C1)[C@@H](c1ccc(NC2Cc3ccccc3C2(C)C)cn1)C(F)(F)F (single isomer, unassigned) [Example 157] | FL hMALT1 enzyme (Homo sapiens, UniProt Q9UDY8) | 1.81 |
| CC(=O)N1CC(OC(=O)N(C)[C@@H](c2ccc(NC3Cc4ccccc4C3(C)C)cc2)C(F)(F)F)C1 (single isomer, unassigned) [Example 58] | FL hMALT1 enzyme (Homo sapiens, UniProt Q9UDY8) | 1.58 |
| CN(C(=O)[C@H]1C[C@@]2(CCN2C)C1)[C@@H](c1ccc(NC2Cc3ccccc3C2(C)C)cn1)C(F)(F)F (single isomer, unassigned) [Example 156] | FL hMALT1 enzyme (Homo sapiens, UniProt Q9UDY8) | 2.23 |
| CN(C(=O)C1CCNC(=O)C1)[C@@H](c1ccc(NC2Cc3ccccc3C2(C)C)cn1)C(F)(F)F (single isomer, unassigned) [Example 118] | FL hMALT1 enzyme (Homo sapiens, UniProt Q9UDY8) | 1.69 |

###

# measurement target: FL hMALT1 enzyme (Homo sapiens);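 further: Cell-free protease assay: enzyme preincubated with compound 30 min at room temperature, then cleavage of fluorogenic Ac-LVSR-AMC substrate (100 µM) tracked by fluorescence (ex 360/em 460 nm)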
# method: biochemical
readout: IC50 (nM)

| molecule | measurement target | readout | unit | readout number |
| --- | --- | --- | --- | --- |
| CN(C(=O)C1CCS(=O)(=O)CC1)[C@@H](c1ccc(NC2Cc3cccc(C(F)(F)F)c3C2)cn1)C(F)(F)F (single isomer, unassigned) [Example 191] | FL hMALT1 enzyme (Homo sapiens) | IC50 | nM | 26 |
| CN(C(=O)N1CCS(=O)(=O)CC1)[C@@H](c1ccc(NC2Cc3ccccc3C2(C)C)cn1)C(F)(F)F (single isomer, unassigned) [Example 142] | FL hMALT1 enzyme (Homo sapiens) | IC50 | nM | 200 |
| CN(C(=O)C1CN(C(=O)C2CCO2)C1)[C@@H](c1ccc(NC2Cc3ccc(Cl)c(F)c3C2)cn1)C(F)(F)F (single isomer, unassigned) [Example 387] | FL hMALT1 enzyme (Homo sapiens) | IC50 | nM | 310 |
| CC(=O)N1CC(C(=O)N(C)[C@@H](c2ccc(NC3Cc4ccc(Cl)c(Cl)c4C3)cn2)C(F)(F)F)C1 (single isomer, unassigned) [Example 377] | FL hMALT1 enzyme (Homo sapiens) | IC50 | nM | 40 |
| COCCC(=O)N(C)[C@@H](c1ccc(NC2Cc3ccccc3C2(C)C)cc1)C(F)(F)F (single isomer, unassigned) [Example 32] | FL hMALT1 enzyme (Homo sapiens) | IC50 | nM | 130 |
| CN(C(=O)C1CCC(=O)NC1)[C@@H](c1ccc(NC2Cc3ccccc3C2(C)C)cn1)C(F)(F)F (single isomer, unassigned) [Example 104] | FL hMALT1 enzyme (Homo sapiens) | IC50 | nM | 140 |
